# run description: chemical genetic growth profiling, strain panel (AID 1159580);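 also: tested at 20 µM; growth read once vehicle control cultures reached saturation at 30 °C; 1 = growth at the plate median or of vehicle wells; lower values mean less growth of the strain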
# applied conditions: S. cerevisiae deletion strains, growth OD, locus YLR268W, strain sec22, hits give low values
The whole screen tested about 5,500 compounds, of which about 2,000 (36%) were called active. Roughly 18% stayed inconclusive and do not appear here. The list shows a part of the results.
readout label: normalized growth

molecule: O=C1CCCC2C3CC(CN12)[C@@H]1CCCCN1C3 (some centres undefined)
endpoint result: 0.979 (inactive)
//
molecule: CC(=O)NCCCCCC(=O)O
endpoint result: 0.996 (inactive)
//
molecule: Cc1occc(=O)c1/C=C/O
endpoint result: 1.01 (inactive)
//
molecule: CNc1ccccc1C(=O)O
endpoint result: 0.993 (inactive)
//
molecule: Cc1ccc(/C(=C\CN2CCCC2)c2ccccn2)cc1
endpoint result: 0.999 (inactive)
//
molecule: Cc1occc(=O)c1O
endpoint result: 1.01 (inactive)
//
molecule: CCN(CC)CCOc1ccc2c(c1)C(=O)c1cc(OCCN(CC)CC)ccc1-2
endpoint result: 0.984 (inactive)
//
molecule: NCCNC(=O)c1ccc(Cl)cc1
endpoint result: 0.992 (inactive)
//
molecule: CN/C(=C\[N+](=O)[O-])NCCSCc1ccc(CN(C)C)o1
endpoint result: 0.997 (inactive)
//
molecule: C[C@H]1[C@H]2CCC3C4CC=C5C[C@@H](N(C)C)CC[C@]5(C)C4CC[C@@]32CN1C (some centres undefined)
endpoint result: 1.02 (inactive)
//
molecule: COc1ccc(C(Cl)=C(c2ccc(OC)cc2)c2ccc(OC)cc2)cc1
endpoint result: 1.01 (inactive)
//
molecule: CC(=O)OC1CC(OC(C)=O)C2(C)C(CC(OC(C)=O)C3(C)C2CCC2(C)C(c4ccoc4)CC4OC423)C1(C)C (centres undefined)
endpoint result: 0.994 (inactive)
//
molecule: NCCCC[C@H](N[C@@H](CCc1ccccc1)C(=O)O)C(=O)N1CCC[C@H]1C(=O)O
endpoint result: 1 (inactive)
//
molecule: O=C(O)c1cccnc1Nc1cccc(C(F)(F)F)c1
endpoint result: 0.978 (inactive)
//
molecule: COc1cc(C(=O)NCc2ccc(OCCN(C)C)cc2)cc(OC)c1OC
endpoint result: 0.971 (inactive)
//
molecule: CC(=O)O[C@@H]1CC2C(C)(C)C=CC(=O)[C@]2(C)C2CC[C@@]3(C)[C@H](c4ccoc4)OC(=O)C4OC43[C@@]21C (some centres undefined)
endpoint result: 1 (inactive)
//
molecule: CN[C@H](CC(=O)O)C(=O)O
endpoint result: 0.991 (inactive)
//
molecule: CC(C)NCC(O)c1ccc(O)c(O)c1 (centres undefined)
endpoint result: 1 (inactive)
//
molecule: COc1c2c(cc3c1OCO3)CCN(C)C2
endpoint result: 1.01 (inactive)
